Origin of the recorded values: ChEMBL document CHEMBL1201862

System: RXF 393
protocol: NCI tumour cell line growth inhibition, 48 h
Calls of active or inactive are those of the source. Cut-off read from the data, not from the text of the source: active = GI50 up to about 1.1 µM and inactive = higher.
observed-property: GI50

CN(C)CC1CCCCCCCCCCC1=O (stereo unspecified) : > 10 µM (inactive)
Clc1ccc(C2SCc3nc4ccccc4n32)c(Cl)c1 (stereo unspecified) : 15.1 µM (inactive)
CC(=O)O[C@H]1CC[C@@]2(C)C(=CC[C@@H]3[C@@H]2CC[C@]2(C)c4c(cc(C#N)c(=N)n4C(C)=O)C[C@@H]32)C1 : 22.6 µM (inactive)
O=c1c2cc(I)ccc2nc(SCc2nncs2)n1Cc1ccccc1 : 13.6 µM (inactive)
Cc1ccc(S(=O)(=O)N[C@@H](Cc2ccccc2)C(=O)CCl)cc1 : 1.38 µM (inactive)

For O=C(N[C@H]1c2ccsc2/C(=N/O)[C@H]1O)C(F)(F)F , what is its reported GI50?
> 100 µM (inactive)

# get_value(readout='GI50', item= Cc1ccc(/C=N/Nc2cnccn2)s1 )
> 100 µM (inactive)

What does the record list as GI50 for COc1ccc(/C=C/c2sc3ccccc3[n+]2CCCCI)cc1OC ?
> 10 µM (inactive)

# GI50 lookup, item O=C(O)CC(NC(=O)CP(=O)(O)O)C(=O)O (stereo unspecified)
249 µM (inactive)

Which measured GI50 value corresponds to N#Cc1c(N2CCN(c3ccc([N+](=O)[O-])cc3)CC2)[n+]([O-])c2ccccc2[n+]1[O-] ?
> 100 µM (inactive)

What value of GI50 has been reported for the following compound? O=C(O)c1cncc(C(=O)O)c1
> 100 µM (inactive)

Any idea what GI50 was measured for COC(=O)N/N=C(\Cc1ccccc1)CN(C)C ?
> 100 µM (inactive)

---

Entries and their GI50 values follow.
System: KM12
protocol: NCI tumour cell line growth inhibition, 48 h
Calls of active or inactive are those of the source. Cut-off read from the data, not from the text of the source: active = GI50 up to about 1.1 µM and inactive = higher.

Cc1cccc2c(=O)c3cccc([C@H](C)C(=O)O)c3oc12 : > 100 µM (inactive)
CCOC(=O)NC(=O)c1cn(CCN2CCN(C(=O)CCCCCCCCCCC(=O)N3CCN(CCn4cc(C(=O)NC(=O)OCC)c(=O)[nH]c4=O)CC3)CC2)c(=O)[nH]c1=O : > 100 µM (inactive)
O=C(CCCCCCCCC(=O)OCCCn1cc(C(=O)NC(=O)OCc2ccccc2)c(=O)[nH]c1=O)OCCCn1cc(C(=O)NC(=O)OCc2ccccc2)c(=O)[nH]c1=O : > 100 µM (inactive)

Lab note: need GI50 with KM12 for entry CC(=O)Nc1sc(Br)cc1S(=O)(=O)c1ccc(Cl)cc1 , please look it up.
20.3 µM (inactive)

What measured GI50 is associated with CC(NNC(=O)c1ccncc1)c1ccc(F)cc1 (configuration not stated) on KM12?
> 100 µM (inactive)

Request: GI50, test system KM12, entry CCOc1ccccc1NC(=O)C1=C(C)NC(C)=C(C(=O)Nc2ccccc2OCC)C1c1ccc(NC(C)=O)cc1
24.8 µM (inactive)

Find the measured GI50: item COc1cc(=O)n2c3ccccc3n(C)c2c1C#N , target or system KM12.
> 100 µM (inactive)

Look up GI50 with KM12 for this molecule: CC(C)[Si]1(C(C)C)OCC2OC(n3ccc(=O)[nH]c3=O)C([Se]c3ccccc3)C2O[Si](C(C)C)(C(C)C)O1 (configuration not stated)
2.16 µM (inactive)

Kindly state the measured GI50 obtained for Cc1[nH]c2ncn(/N=C/c3ccccc3)c(=N)c2c1Cc1ccccc1 with KM12.
75.7 µM (inactive)

---

System: A549
protocol: NCI tumour cell line growth inhibition, 48 h
Active and inactive are the calls of the source. Cut-off read from the data, not from the text of the source: active = GI50 up to about 1.1 µM and inactive = higher.
Classes to choose from: active, inactive

Solved cases below.
O=C(c1ccccc1)c1c(C(F)(F)F)[n+]([O-])c2ccccc2[n+]1[O-] : active
O=[N+]([O-])C(=C1NCCN1)/C(Cl)=C(/Cl)N1CCOCC1 : inactive
CCCCCCCCCCn1cccc1/C=C/c1ccc(/C=C/c2cccn2CCCCCCCCCC)cc1 : inactive
O=C(/C=C\c1cccc2ccccc12)c1cccc2ccccc12 : inactive
Cc1c(C(=O)C/C(=N/NC(=O)c2ccccc2)C(=O)Nc2ccc(Cl)cc2)[n+]([O-])c2ccccc2[n+]1[O-] : inactive

So what was the verdict on CCOC(=O)c1cc2c(OC)cc(OC)cc2oc1=O in this test?
inactive

How did this test come out for CC(O)C1OC(O)C2OC(C)(C)OC12 (centres undefined) ?
inactive

// outcome(item) with item = COc1cc(C2S/C(=C/c3ccccc3)C(=O)N2c2ccccn2)cc(OC)c1OC (centres undefined)
inactive

Called result for CC[C@@H]1CN2CCC1C[C@@H]2C(O)c1ccnc2ccc(OCCN3CCN(CCOc4ccc5nccc(C(O)[C@@H]6C[C@@H]7CCN6C[C@@H]7CC)c5c4)CC3)cc12 (some centres undefined)
inactive

---

Tested on: A498
protocol: NCI tumour cell line growth inhibition, 48 h
Activity calls are given as the source filed them. Cut-off read from the data, not from the text of the source: active = GI50 up to about 1.1 µM and inactive = higher.
Listed below: GI50 values for each entry.

Cc1ccc(NC(=O)NC(=O)c2ccc([N+](=O)[O-])cc2[N+](=O)[O-])cc1Oc1ncc(Cl)cn1 : 0.5 µM (active)
C/C(=N\NS(=O)(=O)c1ccc(C)cc1)C(CN1CCCCC1)C(c1ccccc1)c1c(O)c2ccccc2oc1=O (configuration not stated) : > 100 µM (inactive)
COC(=O)C1CC2(CC3=C1CCCC3)OCCO2 (configuration not stated) : > 100 µM (inactive)
COc1cc(/C=C2\C[C@H]3[C@@H]4CCC5=CC(=O)CC[C@]5(C)[C@H]4CC[C@]3(C)C2=O)cc(OC)c1OC : 17.7 µM (inactive)
CC(C)OP(=O)(OC(C)C)c1ncn(-c2ccc([N+](=O)[O-])cc2)n1 : > 100 µM (inactive)
ClCCCN1CCCCC1CCl (configuration not stated) : > 100 µM (inactive)

Item CCOC(=O)CCC(NC(=O)c1ccc(Nc2nc3ccccc3n3cccc23)cc1)C(=O)OCC (configuration not stated) has what recorded GI50?
70.1 µM (inactive)

Any idea what its GI50 is? The compound is COc1ccc(C2SCC(=O)N2NC(=O)C(C)Oc2ccccc2C)cc1 (configuration not stated)
46 µM (inactive)

Entry COc1cc(/C=C/C(=O)c2sc(NNC(C)=O)nc2C)ccc1O : reported GI50 = ?
84.3 µM (inactive)

Recorded GI50 for COc1ccc2c(n1)Sc1nc3ccccc3nc1N2 , please?
> 100 µM (inactive)

What does the data say about its GI50? Entry: CCOc1ccnc2c(OC)c(C)c3nc4ccccc4nc3c12
> 100 µM (inactive)

# get_value(readout='GI50', item= CNc1ccc(C)cc1S(=O)(=O)c1ccccc1[N+](=O)[O-] )
62.5 µM (inactive)

Given the compound COc1ccc(Nc2nc3cc(C(F)(F)F)ccc3nc2-c2ccccc2)cc1OC , what is its reported GI50?
52.1 µM (inactive)

Quick check: GI50 of O=C(/C=C/c1ccccc1)NC1C=Nc2ccc(Cl)cc2NC1=O (configuration not stated) ?
21.7 µM (inactive)

// returns reported GI50 for input CS(=O)(=O)Sc1ccc(Cl)cc1
2.38 µM (inactive)

# get_value(readout='GI50', item= CCCCc1c2c(nc3c1CCC/C3=C\c1ccccc1)C(=O)C(CN(C)C)CC2 (configuration not stated) )
18.7 µM (inactive)

Suppose we examine the compound CC1CCCC2=C1C(c1ccc(Cl)cc1)n1c(s/c(=C\c3ccc(Cl)cc3)c1=O)=N2 (configuration not stated) ; what GI50 value has been reported?
> 100 µM (inactive)

Consider the compound CC1(C)CC(=O)C(CCC(=O)/C=C/c2ccccc2)C(=O)C1 and give its measured GI50.
> 100 µM (inactive)

Fill blank: measured GI50 of the compound CCC1=CC(OCc2ccccc2)C(CCN(Cc2ccccc2)C(=O)OCc2ccccc2)C1 (configuration not stated) is ____.
16 µM (inactive)

Can you look up the measured GI50 of COc1ccc(O)c2c1C(=O)CCCC2=O for me?
> 100 µM (inactive)

For C1=C(c2ccccc2)SC=C(c2ccccc2)S1 , what is its reported GI50?
17.9 µM (inactive)

# query: GI50 of entry Clc1ccc(C2SCc3nc4ccccc4n32)c(Cl)c1 (configuration not stated)
15 µM (inactive)

---

Test system: SF-268
protocol: NCI tumour cell line growth inhibition, 48 h
Activity calls are given as the source filed them. No stated cut-off is given here; in the data, active = GI50 up to about 1.1 µM and inactive = higher.
observed-property: GI50

Use these answered entries as a reference point.
C[C@]12CC[C@H]3[C@@H](CC=C4C[C@@H](O)CC[C@@]43C)[C@@H]1C/C(=C\c1ccc([N+](=O)[O-])cc1)[C@@H]2O : 26.1 µM (inactive)
CN(C)CCNC(=O)c1cccc2nc3cccc(F)c3nc12 : 2.31 µM (inactive)
O=P(Oc1ccc2ccccc2c1)(N1CC1)N1CC1 : 2.15 µM (inactive)
COC1=C(OC)C(=O)c2cc(SC)c(=O)c(SC)cc2C1=O : 12.8 µM (inactive)

Now let's try a different one.
Entry under review: CN1CCc2[nH]c3ccccc3c2C1 . Reported GI50?
> 100 µM (inactive)
